Provenance of the data: paper PMC11618438

molecular target: MT1 (Homo sapiens); assay: 2-[125I]-iodomelatonin competition binding assay, membranes of HEK293 cells; settings: Ki, 2-[125I]MLT binding assay, hMT1 stably expressed in HEK293 cells
property.name: Ki (nM)
Response body: numeric value in nM, unit text excluded.

Incoming: Give the measured Ki of CC/C(=C(\c1ccccc1)c1ccc(OCCN(C)C(=O)CCCCCCOc2ccc3[nH]cc(CCNC(C)=O)c3c2)cc1)c1ccccc1 [19c] .
Outgoing: 2.8

Incoming: Another: CC/C(=C(\c1ccccc1)c1ccc(OCCN(C)CCOCCOCCOc2ccc3[nH]cc(CCNC(C)=O)c3c2)cc1)c1ccccc1 [compound 21]
Outgoing: 6.5

Incoming: Another: CC/C(=C(\c1ccccc1)c1ccc(OCCN(C)C(=O)CCCCCOc2ccc3[nH]cc(CCNC(C)=O)c3c2)cc1)c1ccccc1 [compound 19b]
Outgoing: 3150

Incoming: Another: CC/C(=C(\c1ccccc1)c1ccc(OCCN(C)CCCCCC(=O)NCCCOc2ccc3[nH]cc(CCNC(C)=O)c3c2)cc1)c1ccccc1 [16b]
Outgoing: 22

###

Assignment: determine reported pEC50 for the given compounds.
molecular target: MT1 (Homo sapiens, UniProt P48039); assay: β-arrestin2 recruitment BRET assay in HEK293 cells; assay type: cell-based; details: EC50, ß-arrestin recruitment, hMT1 HEK293 cells, BRET
Sequence (P48039 whole entry): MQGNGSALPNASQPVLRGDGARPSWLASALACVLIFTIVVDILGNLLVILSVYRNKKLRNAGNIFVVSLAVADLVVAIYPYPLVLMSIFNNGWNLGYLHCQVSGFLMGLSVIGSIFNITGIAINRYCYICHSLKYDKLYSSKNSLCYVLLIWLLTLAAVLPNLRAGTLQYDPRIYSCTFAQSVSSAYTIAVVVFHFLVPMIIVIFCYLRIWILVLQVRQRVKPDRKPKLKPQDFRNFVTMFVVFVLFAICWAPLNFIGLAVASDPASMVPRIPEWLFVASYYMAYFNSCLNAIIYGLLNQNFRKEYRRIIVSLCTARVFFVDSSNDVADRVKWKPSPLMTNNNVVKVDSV
Note on units: pEC50 is unitless, being -log10 of a concentration expressed in mol/L.

Incoming: Param readout= pEC50; system= MT1 (Homo sapiens, UniProt P48039); entry= CC/C(=C(\c1ccccc1)c1ccc(OCCN(C)CCCCCC(=O)NCCCOc2ccc3[nH]cc(CCNC(C)=O)c3c2)cc1)c1ccccc1 [16b] ; returns value.
Outgoing: 6.00

Incoming: Another: CC/C(=C(\c1ccccc1)c1ccc(OCCN(C)C(=O)CCCCCCOc2ccc3[nH]cc(CCNC(C)=O)c3c2)cc1)c1ccccc1 [19c]
Outgoing: 5.65

Incoming: Another: CC/C(=C(\c1ccccc1)c1ccc(OCCN(C)CCOCCOCCOc2ccc3[nH]cc(CCNC(C)=O)c3c2)cc1)c1ccccc1
Outgoing: 6.71

Incoming: Another: CC/C(=C(\c1ccccc1)c1ccc(OCCN(C)C(=O)CCCCCOc2ccc3[nH]cc(CCNC(C)=O)c3c2)cc1)c1ccccc1 [compound 19b]
Outgoing: 5.33

###

biological target: MT1 (Homo sapiens, UniProt P48039); assay: cAMP accumulation assay, forskolin-stimulated HEK293 cells; assay type: cell-based; conditions: pEC50 ± S.E.M., cAMP accumulation, hMT1 HEK293 cells; 1 μM forskolin
property.name: EC50
Numeric answer plus unit only.

Incoming: Param readout= EC50; system= MT1 (Homo sapiens, UniProt P48039); entry= CC/C(=C(\c1ccccc1)c1ccc(OCCN(C)C(=O)CCCCOc2ccc3[nH]cc(CCNC(C)=O)c3c2)cc1)c1ccccc1 [19a] ; returns value.
Outgoing: 8910 nM

Incoming: Another: CC/C(=C(\c1ccccc1)c1ccc(OCCN(C)C(=O)CCCCCOc2ccc3[nH]cc(CCNC(C)=O)c3c2)cc1)c1ccccc1 [compound 19b]
Outgoing: 372 nM

Incoming: Another: CC/C(=C(\c1ccccc1)c1ccc(OCCN(C)CCCCCC(=O)NCCCOc2ccc3[nH]cc(CCNC(C)=O)c3c2)cc1)c1ccccc1 [16b]
Outgoing: 871 nM

Incoming: Another: CC/C(=C(\c1ccccc1)c1ccc(OCCN(C)C(=O)CCCCCCOc2ccc3[nH]cc(CCNC(C)=O)c3c2)cc1)c1ccccc1 [19c]
Outgoing: 209 nM

Incoming: Another: CC/C(=C(\c1ccccc1)c1ccc(OCCN(C)CCOCCOCCOc2ccc3[nH]cc(CCNC(C)=O)c3c2)cc1)c1ccccc1 [compound 21]
Outgoing: 63.1 nM
